MEASUREMENT_NOTES: gradient 5% acetonitrile 3 min, to 50% in 2 min, to 85% in 15 min, held 3 min, 100 µL/min
PROTOCOL_CONDITIONS: column: Zorbax Extend-C18 2.1 x 50 mm; eluents: water / acetonitrile, 0.1% formic acid
Entry flag: MET if RP-LC retention time reaches 800 s; NOT MET if it does not.

{"columns": ["COMPOUND", "LABEL_VALUE"],
 "data": [
  ["Cc1nc(N2CCN(CCO)CC2)nc2c1C(=O)CC(c1cccc(Cl)c1)C2 (stereo not drawn)", "NOT MET"],
  ["COc1ccc(NC(=O)c2cccs2)c([N+](=O)[O-])c1", "MET"],
  ["Cc1noc(CNC(=O)c2cc(C)on2)n1", "NOT MET"],
  ["Cc1ccc(C(=O)Nc2nc(-c3ccc(C(C)(C)C)cc3)cs2)cc1", "MET"],
  ["CCOc1ccc(CC(=O)NC2CCN(c3cc(-c4ccc(F)cc4)[nH]n3)C2)cc1OCC (stereo not drawn)", "NOT MET"],
  ["CCCCC(=O)Nc1ccc2nc(N3CCN(CC)CC3)cc(C)c2c1", "NOT MET"],
  ["Cc1c(CC(=O)NCc2cccnc2)c(=O)n2nc(-c3ccccc3)nc2n1C", "NOT MET"],
  ["CNC(=O)c1ccc(N2C(=S)N(c3cnc(C#N)c(C(F)(F)F)c3)C(=O)C23CCC3)cc1F", "MET"],
  ["Cc1ccc(CN2CCN(C3CCN(C(=O)Nc4cccc(C)c4)CC3)C(=O)C2=O)cc1", "NOT MET"],
  ["O=C(CN1C(=O)C2CCCCN2c2ccc(S(=O)(=O)N3CCCC3)cc21)NC1CCCC1 (stereo not drawn)", "NOT MET"],
  ["NC(=O)c1nsc2c(=O)n(CC(=O)NCc3ccco3)cnc12", "NOT MET"],
  ["O=S(=O)(NCc1cccs1)c1ccc(Cl)c(-c2nnc(-c3ccccc3)o2)c1", "MET"],
  ["COc1cc(OC)c(NC(=O)N2CCCC(C)(C(=O)NCc3ccccc3)C2)cc1Cl (stereo not drawn)", "MET"],
  ["O=C(Nc1ccc(NC(=O)N2CCC(C(=O)NCC3CC3)CC2)cc1)NC1CCCC1", "NOT MET"],
  ["Cc1nnc2n1CCC(NC(=O)c1ccsc1)CC2 (stereo not drawn)", "NOT MET"],
  ["CCOC(=O)c1ccc(NC(=O)Cn2nc3n(c2=O)CCCC3)cc1", "NOT MET"],
  ["CC(C)S(=O)(=O)N1CCC(F)(c2nc(-c3ccccc3)no2)CC1", "MET"],
  ["COCCOCc1nc(C2CCCN2S(=O)(=O)c2cc(F)ccc2F)no1 (stereo not drawn)", "MET"],
  ["Cc1cccc(C(=O)NCC2CCCN(S(=O)(=O)c3cc(C)c(C)cc3C)C2)c1 (stereo not drawn)", "MET"],
  ["COc1ccccc1C(=O)N1CCN(S(=O)(=O)c2cc3c4c(c2)CCC(=O)N4CCC3)CC1", "NOT MET"],
  ["COc1ccc(NC(=O)c2cnc3c(c2)c(=O)n(C)c(=O)n3-c2ccccc2)cc1OC", "NOT MET"],
  ["CC(=O)Nc1ccc(NC(=O)C2CCCN(c3nc4ccccc4nc3C(F)(F)F)C2)cc1 (stereo not drawn)", "MET"],
  ["O=c1n(Cc2cccc(Br)c2)nc2c(S(=O)(=O)N3CCCCCC3)cccn12", "MET"],
  ["Cc1ccc(NC(=O)Cn2cnc3c(-c4ccccc4)csc3c2=O)c(Cl)c1", "MET"],
  ["COc1ccc(CNC(=O)Cn2c(=O)cc(-c3nc(C4CC4)no3)c3ccccc32)cc1", "MET"],
  ["O=C(Cc1ccc(F)cc1)N1CCN(Cc2nc(C3CC3)cs2)CC1", "NOT MET"],
  ["Cc1ccc(C)c(NC(=O)CSc2cc(N3CCN(c4ccccc4F)CC3)ncn2)c1", "MET"],
  ["COC(=O)c1cc(C)nc2c1c(=O)n(Cc1ccc(OC)cc1)c(=O)n2C", "MET"],
  ["CCCCN(C)C(=O)Cn1cncc(-c2nc(-c3ccccc3)cs2)c1=O", "MET"],
  ["N#Cc1cccc(CN2CCCC2c2nc(-c3ccccc3)n[nH]2)c1 (stereo not drawn)", "NOT MET"],
  ["Cc1ccsc1C(=O)N1CCC(N2C[C@H](O)C[C@H]2C(=O)NC2CCCCC2)CC1", "NOT MET"],
  ["CN1CCN(CCNC(=O)c2ccc3c(c2)N(S(=O)(=O)c2ccccc2F)CC3)CC1", "NOT MET"],
  ["O=C(NCCCN1CCCC1=O)c1ccc2nc(Cc3ccccc3)oc2c1", "NOT MET"]
]}

====

Below, each entry is listed alongside its reported RP-LC retention time.
MEASUREMENT_NOTES: gradient 5% acetonitrile 3 min, to 50% in 2 min, to 85% in 15 min, held 3 min, 100 µL/min
PROTOCOL_CONDITIONS: column: Zorbax Extend-C18 2.1 x 50 mm; eluents: water / acetonitrile, 0.1% formic acid

{"columns": ["COMPOUND", "VALUE_UNIT", "RP-LC retention time"],
 "data": [
  ["CCOC(=O)c1[nH]c(C)c(CCC(=O)N2CCC(C(=O)NCCCN3CCCC(C)C3)CC2)c1C (centres undefined)", "s", 604],
  ["CCc1noc(NC(C)=O)c1-c1ccc(OC)c(S(=O)(=O)N2CCN(c3ccccn3)CC2)c1", "s", 614],
  ["Cc1ccc2nc(C(=O)NCc3cc(F)ccc3F)cn2c1", "s", 655],
  ["COCCN1CCC2(CC1)CN(Cc1ccc(F)cc1Cl)Cc1ccccc1O2", "s", 790],
  ["O=S(=O)(NCC(c1cccnc1)N1CCN(c2ccc(F)cc2)CC1)c1cccs1 (centres undefined)", "s", 618],
  ["Cn1nc(-c2nnc(-c3ccc(F)cc3)o2)c2c1CCN(S(=O)(=O)c1ccc3c(c1)CCC3)C2", "s", 1290],
  ["COc1ccc(-n2cc(C(=O)Oc3cccnc3)c3ccccc3c2=O)cc1", "s", 911],
  ["Cc1cccc(NS(=O)(=O)c2ccc3nncn3c2)c1", "s", 673],
  ["Cc1ccc(NC(=O)Cn2nc(N3CCCC3)c3ccccc3c2=O)cc1", "s", 938],
  ["COc1ccc(C2NC(=O)NC(C)=C2C(=O)OCCc2ccccc2)c(OC)c1 (centres undefined)", "s", 957],
  ["Cc1cc(NC(=O)CSc2nnc(Cc3cccn3C)n2CCc2ccccc2)no1", "s", 762],
  ["CCC(=O)N1CCN(c2nc3c(s2)CC(C(=O)Nc2cc(F)ccc2F)CC3)CC1 (centres undefined)", "s", 633],
  ["CCc1nn2c(=O)cc(CSc3nnc(-c4ccc5c(c4)OCO5)o3)nc2s1", "s", 743],
  ["Cc1nc(N2CCOCC2)c2c(C(=O)Nc3ccccc3)c(C)oc2n1", "s", 778],
  ["O=S(=O)(c1ccc(Br)cc1)N1CCC(c2noc(-c3ccccc3)n2)CC1", "s", 1180],
  ["O=C(Nc1cccc(Br)c1)N1CCc2nc(-c3ccccc3)ncc2C1", "s", 1030],
  ["COc1ccc(CNC(=O)C2CN(S(=O)(=O)C3CC3)CC23CCCCC3)c(OC)c1 (centres undefined)", "s", 815],
  ["CN(C)C(=O)N1CCc2nn(Cc3ccccc3)c(=O)n2CC1", "s", 649],
  ["Cc1cc2nc(C(=O)Nc3ccc(F)c(F)c3)cc(C)n2n1", "s", 986]
]}

====

MEASUREMENT_NOTES: gradient 5% acetonitrile 3 min, to 50% in 2 min, to 85% in 15 min, held 3 min, 100 µL/min
PROTOCOL_CONDITIONS: column: Zorbax Extend-C18 2.1 x 50 mm; eluents: water / acetonitrile, 0.1% formic acid
The reader will find reported RP-LC retention time values listed item by item below.

{"columns": ["MOLECULE", "RP-LC retention time, s"],
 "data": [
  ["O=C(NCc1csc(-c2ccccc2)n1)C1CCN(S(=O)(=O)c2ccc(Cl)s2)CC1", 995],
  ["CCc1noc(-c2ccc(SCC(=O)N3CCN(c4ccccn4)CC3)nc2)n1", 619],
  ["Cc1cccc(S(=O)(=O)Nc2ccc3c(c2)CCC(=O)N3C)c1", 758],
  ["COc1ccc(-c2noc(C3CC(=O)N(c4cc(Cl)ccc4OC)C3)n2)c(OC)c1 (stereo not given)", 1010],
  ["CCCn1cc(S(=O)(=O)Nc2cc(F)ccc2F)c2cccnc21", 890]
]}

====

MEASUREMENT_NOTES: gradient 5% acetonitrile 3 min, to 50% in 2 min, to 85% in 15 min, held 3 min, 100 µL/min
PROTOCOL_CONDITIONS: column: Zorbax Extend-C18 2.1 x 50 mm; eluents: water / acetonitrile, 0.1% formic acid
In this section we review reported RP-LC retention time values for a set of compounds.

{"columns": ["COMPOUND", "RP-LC retention time / s"],
 "data": [
  ["O=C(CCc1ccccc1)N1CCc2cc(-c3ccno3)ccc21", 1020],
  ["O=C(CC1CCCN(c2cn[nH]c(=O)c2)C1)Nc1ccc2c(c1)OCCO2 (stereo not given)", 639],
  ["COc1ccc(CN2C=C(C(=O)OCc3noc(C4CCCCC4)n3)C(C)=NS2(=O)=O)cc1", 1150],
  ["COc1ccc(CCC(=O)Nc2cnn(-c3ncc(N(C)C)cn3)c2)cc1", 737],
  ["CCOC(=O)N1CCN(C(=O)CSc2ncnc3c2oc2ccccc23)CC1", 742]
]}
